B1: VAMP4 (parent)
chain: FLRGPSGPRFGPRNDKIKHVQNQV

Variants of: B1
Test: protein stability index of a GFP-peptide fusion (GPS, HEK-293T) (PSI 1-6); higher = more stable;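 note: lentivirally expressed fusions sorted by FACS into six bins by GFP to DsRed ratio, PSI derived from sequencing read proportions per bin multiplied by bin number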
Settings: c terminus: a fixed tail appended
Assign met whenever protein stability index does not fall below 3; assign not met whenever it does.

hey, is protein stability index for this one >= 3? FLRGPSGPRFGPREDKIKHVQNQV [N14E]
met

hey, is protein stability index for this one >= 3? FLRGPSFPRFGPRNDKIKHVQNQV [G7F]
not met

hey, is protein stability index for this one >= 3? FLRGPSGPRFGPRNDTIKHVQNQV [K16T]
not met

hey, is protein stability index for this one >= 3? FLDGPSGPRFGPRNDKIKHVQNQV [R3D]
met

hey, is protein stability index for this one >= 3? KLRGPSGPRFGPRNDKIKHVQNQV [F1K]
met

hey, is protein stability index for this one >= 3? FLRGPSGPRFGVRNDKIKHVQNQV [P12V]
not met

hey, is protein stability index for this one >= 3? FLRGPSGPRFGPRNDKIKFVQNQV [H19F]
not met

hey, is protein stability index for this one >= 3? FLRGPSGPRFQPRNDKIKHVQNQV [G11Q]
not met

hey, is protein stability index for this one >= 3? FLRGPSGPRFGPRNDKIKHWQNQV [V20W]
not met

hey, is protein stability index for this one >= 3? FLRGPSGPRFGPRNDKIKHVQDQV [N22D]
met

hey, is protein stability index for this one >= 3? HLRGPSGPRFGPRNDKIKHVQNQV [F1H]
met

hey, is protein stability index for this one >= 3? LLRGPSGPRFGPRNDKIKHVQNQV [F1L]
met

hey, is protein stability index for this one >= 3? FLRGPSGPRFGPRNDKIKHVQQQV [N22Q]
not met

hey, is protein stability index for this one >= 3? TLRGPSGPRFGPRNDKIKHVQNQV [F1T]
met

hey, is protein stability index for this one >= 3? FLRGPSGPRCGPRNDKIKHVQNQV [F10C]
not met

hey, is protein stability index for this one >= 3? FLRGPSGPVFGPRNDKIKHVQNQV [R9V]
not met

hey, is protein stability index for this one >= 3? FLRGPSGPRFGPRNDKQKHVQNQV [I17Q]
not met

hey, is protein stability index for this one >= 3? FLRGPSGPRFGPRNSKIKHVQNQV [D15S]
not met

hey, is protein stability index for this one >= 3? FLRGPSGPRFGPRNDKIKHVQSQV [N22S]
met

hey, is protein stability index for this one >= 3? FLRGPSGPRFGPRNDKIKHVQNQI [V24I]
not met

hey, is protein stability index for this one >= 3? FLRGPSGPRFGPRNDKKKHVQNQV [I17K]
not met

hey, is protein stability index for this one >= 3? FLRGPSGPRFGPRNDKIKAVQNQV [H19A]
not met

hey, is protein stability index for this one >= 3? FLRGPSGPRFGPRNCKIKHVQNQV [D15C]
not met

hey, is protein stability index for this one >= 3? FLRGPSGPRFGPRNDKIKHVQNGV [Q23G]
not met

hey, is protein stability index for this one >= 3? FLRGPSLPRFGPRNDKIKHVQNQV [G7L]
not met

hey, is protein stability index for this one >= 3? FLRGPSGPCFGPRNDKIKHVQNQV [R9C]
not met

hey, is protein stability index for this one >= 3? FLRGPSGPRFGPRNDKIKHVQNAV [Q23A]
not met

hey, is protein stability index for this one >= 3? FLRGPSGPRFGPRNDKIKIVQNQV [H19I]
not met

hey, is protein stability index for this one >= 3? FLRGPSGPRFGPLNDKIKHVQNQV [R13L]
not met

hey, is protein stability index for this one >= 3? FLRGPSGPRRGPRNDKIKHVQNQV [F10R]
met

hey, is protein stability index for this one >= 3? FLRGPSGPRFGPRNDLIKHVQNQV [K16L]
not met

hey, is protein stability index for this one >= 3? FLRGPPGPRFGPRNDKIKHVQNQV [S6P]
not met

hey, is protein stability index for this one >= 3? FLRGPSGPRFGPRNDKIKHGQNQV [V20G]
not met

hey, is protein stability index for this one >= 3? FLRGPSGPRFSPRNDKIKHVQNQV [G11S]
not met

hey, is protein stability index for this one >= 3? FLRGPSGPRFGPDNDKIKHVQNQV [R13D]
met

hey, is protein stability index for this one >= 3? FLRGPSGPRFGPRNDKIDHVQNQV [K18D]
not met

hey, is protein stability index for this one >= 3? FLRGPSGPRFGPRNDKIKGVQNQV [H19G]
not met

hey, is protein stability index for this one >= 3? FLRGPSGPRFGRRNDKIKHVQNQV [P12R]
not met

hey, is protein stability index for this one >= 3? FLRGPYGPRFGPRNDKIKHVQNQV [S6Y]
not met

hey, is protein stability index for this one >= 3? FLRGPSGPRFGPRNGKIKHVQNQV [D15G]
not met

hey, is protein stability index for this one >= 3? FLRGPSGPRFFPRNDKIKHVQNQV [G11F]
not met
